test system: RXRa homodimer (NR concentration 180 nM); assay: PBM binding z-score (relative to random genomic background probes); higher = stronger binding; sequences stand for … in GC…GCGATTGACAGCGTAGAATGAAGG
experimentalEndpoint: PBM binding z-score
Answer with a number only.

# polymerSequence, experimentalEndpoint, observed
records = [
    ("TGAATGAGGTAAAAGATCAGGGAACGTGGCGTCG", "PBM binding z-score", 0.851),
]

Any idea what its PBM binding z-score is? The sequence is TGAATGAGGTTATAAGGTCAGGGAACGTTGCAAA
5.44

Any idea what its PBM binding z-score is? The sequence is ACTCGCAGGCCAAGTTTGGGTCACTCAAACAAAG
0.756

###

tested on: THRa homodimer (NR concentration 90 nM); test: PBM binding z-score (relative to random genomic background probes); higher = stronger binding; sequences stand for … in GC…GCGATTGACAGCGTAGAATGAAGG
Could you label it Met if measured PBM binding z-score is 0.5 or higher, and Not met otherwise?

Study these solved cases before continuing.
# polymerSequence, cat
measured = [
    ("TCGAATAGGTTAGGGGCATTCAGAATGGCGTCGA", "Not met"),
    ("TAGCCTAGGTCATTGGGCCAGCATAGTACGCATC", "Met"),
    ("TCTGCTAGGTCAACGATGGTCACCTAATCTGCTA", "Met"),
]

Entry CCCGACAGGTGAGAAGGTAACTCAGCCTCGATTA : is its PBM binding z-score no less than 0.5?
Not met

Entry CCTATTAGTTGACCATAAGCGCAACCGAAGCTCG : is its PBM binding z-score no less than 0.5?
Met

Entry ACTCGGAGGACAAAGCTCAGAGCTACGCCAGTGA : is its PBM binding z-score no less than 0.5?
Not met

###

tested on: PPARg DBDmut IVT, anti-PPARg (DBD mutation: PPARg1 K132A/R137A, NR concentration 270 nM); test: PBM binding z-score (relative to random genomic background probes); higher = stronger binding; sequences stand for … in GC…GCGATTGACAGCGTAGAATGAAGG
Reported values of PBM binding z-score for individual entries
Answer with a number only.

// known answers, use as guide
# polymerSequence, PBM binding z-score
data = [
    ("TCATATAGGAAAAAGGTGAAAGTCGGTGTGGTAA", 0.104),
    ("AGAACGCGGGCACGCTGAGTTGATAGCAGAGTAG", -1.15),
    ("AGAATGAGGTTAAGATCAGGAAAACAGAATACAT", 0.813),
    ("ATACGTAGGTTAAGGGTCATTCAGGTTGGTTCGC", 0.775),
]

Any idea what its PBM binding z-score is? The sequence is CGTCCAAGGTCAGAGAGATCAGTGAATGCCGAGT
-0.28

Any idea what its PBM binding z-score is? The sequence is TCTTGTAGATCAACAGGAGCTTAAGAAAGATCGA
-0.235

Any idea what its PBM binding z-score is? The sequence is TGTCGGAGGACACGAAGGTCAGAGCTTTCCAGAG
-0.906

Any idea what its PBM binding z-score is? The sequence is ATCTCTAGGTAAGACTCAGTTCAGTAAAGAACGC
0.972

Any idea what its PBM binding z-score is? The sequence is ATATGTAGGTTACATCCGCGTCATTCAGGCTATG
1.99

Any idea what its PBM binding z-score is? The sequence is TTACCAAGGTGAGCTGAGGTCGTTCATCCAACTC
-0.434

Any idea what its PBM binding z-score is? The sequence is GCCGCTAGGTCAGGTTGGTCAGCTAACGGGTACG
-1.32

Any idea what its PBM binding z-score is? The sequence is CGTAAAAGTTCAAGGTAACGTAACAGAAAGCAGC
1.28

###

tested on: THRa:RXRa (NR concentration 90 nM, RXRa partner concentration 90 nM); assay: PBM binding z-score (relative to random genomic background probes); higher = stronger binding; sequences stand for … in GC…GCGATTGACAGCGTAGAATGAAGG
experimentalEndpoint: PBM binding z-score
Answer with a number only.

// known answers, use as guide
# polymerSequence, PBM binding z-score
rows = [
    ("AGTCAAGGTTCAGGACGAGGTAACGTAAAGCACG", 3.55),
    ("TCATATAGGTAAGAGGTGAAAGTCGGTGTGGTAA", 1.69),
    ("CCTGGGAGGACAACAGGAGGTCAGAGCTGCCAGA", 3.05),
    ("GGAACGCGGGCATTCGAGTTGATAGCATGGCGAT", 0.468),
    ("CGAACTAGGTCAGAATAGGACAGTGAAGGATGAT", 2.77),
]

--- query ---
Any idea what its PBM binding z-score is? The sequence is CGAACTAGGTCATTGAGAGGACAGTGAATAGTAA
3.42

###

tested on: PXR:RXRa (NR concentration 270 nM, RXRa partner concentration 90 nM); assay: PBM binding z-score (relative to random genomic background probes); higher = stronger binding; sequences stand for … in GC…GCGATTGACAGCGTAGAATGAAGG
Reported values of PBM binding z-score for individual entries
Answer with a number only.

Request body: readout PBM binding z-score, system PXR:RXRa (NR concentration 270 nM, RXRa partner concentration 90 nM), query TCATATAGGTAAATGCTAGGTGAAAGACCGATCT . Return the value.
0.594

Request body: readout PBM binding z-score, system PXR:RXRa (NR concentration 270 nM, RXRa partner concentration 90 nM), query GCGACTGGGGCATCAGCTGGTTACCATAACTTAA . Return the value.
-0.444

###

Reported values of PBM binding z-score for individual entries
test system: RXRa homodimer (NR concentration 180 nM); experiment: PBM binding z-score (relative to random genomic background probes); higher = stronger binding; sequences stand for … in GC…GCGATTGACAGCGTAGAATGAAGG
Answer with a number only.

Any idea what its PBM binding z-score is? The sequence is CCTTACGGGTCAAGGTTACAGCACGGGTGGTACG
5.42

Any idea what its PBM binding z-score is? The sequence is CGGCAAAGTTCAAGGTAACGTAACAGAAAGCAGC
4.62

Any idea what its PBM binding z-score is? The sequence is ATATGTAGGTTAGCTGGGGTCTTTCAGACTAGGC
0.914

###

tested on: THRa:RXRa (NR concentration 90 nM, RXRa partner concentration 90 nM); test: PBM binding z-score (relative to random genomic background probes); higher = stronger binding; sequences stand for … in GC…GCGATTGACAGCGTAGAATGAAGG
experimentalEndpoint: PBM binding z-score
Answer with a number only.

# polymerSequence, targetEntity, observed
rows = [
    ("CCTAGTTGGTCAAGGTCACACAGGCTATAGGTAC", "THRa:RXRa (NR concentration 90 nM, RXRa partner concentration 90 nM)", 4.16),
    ("GGAACGAGGGCAAAGTTGATTGCATCTGTCGACG", "THRa:RXRa (NR concentration 90 nM, RXRa partner concentration 90 nM)", 1.36),
]

Any idea what its PBM binding z-score is? The sequence is TCTTGTAGATCAGCAGGTCAAGAAAGCTGGCCAA
1.89

Any idea what its PBM binding z-score is? The sequence is TTACCAAGGTGAGCTGAGGTCTTTGATCCAACTC
4.17

Any idea what its PBM binding z-score is? The sequence is ATCGAAAGGTCGACGAAGTGAGTATACACCGTTT
1.79

Any idea what its PBM binding z-score is? The sequence is ACTATTAGTTGACTTAGGGCGACCGATACGACGC
1.12

Any idea what its PBM binding z-score is? The sequence is TCATATAGGTAAAGGTGAAATTCGAACGATATGA
1.37

Any idea what its PBM binding z-score is? The sequence is ATCTCTAGGTAAAGTTCAGTAAAAGATCGATAGA
1.23

###

tested on: LXRa homodimer (NR concentration 270 nM); assay: PBM binding z-score (relative to random genomic background probes); higher = stronger binding; sequences stand for … in GC…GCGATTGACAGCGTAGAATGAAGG
Could you label it 1.0 if measured PBM binding z-score is 0.08 or higher, and 0.0 otherwise?

Entry CCGACTGGGGCATAAGGTTACCAGAAGCCAGCCC : is its PBM binding z-score no less than 0.08?
0.0

Entry CAGCCTAGGTCAGGGCAAGTATAGGAGGAACGTT : is its PBM binding z-score no less than 0.08?
0.0

Entry GCAGACAGGTGAAACGCTGGTAACTCAGGGTGGC : is its PBM binding z-score no less than 0.08?
0.0

Entry ATCTCTAGGTAAAGATAGTTCATTGAATGCAAAT : is its PBM binding z-score no less than 0.08?
1.0

Entry ACTTACGAGTCAACGAGGTTATAGCACGCGTATA : is its PBM binding z-score no less than 0.08?
1.0

Entry TCTATTAGTTGAATAGGGCAACCGAAACAGCGGA : is its PBM binding z-score no less than 0.08?
0.0

Entry AGTCAAAGTTCACTAGGTAACGTCAGATTCAGCT : is its PBM binding z-score no less than 0.08?
1.0

Entry TAGACTAGGTCATGCGGGCCAGTATAGTGTCGGC : is its PBM binding z-score no less than 0.08?
1.0

Entry ATATGTAGGTTATCGAGTCATTCAGTTTGCGCAT : is its PBM binding z-score no less than 0.08?
1.0

Entry GCTAGTTGGTCAGTCAAAGGTCACACACCGGTCG : is its PBM binding z-score no less than 0.08?
1.0

Entry GGAACGAGGGCATTCGAGATGATAGCATGGCGAT : is its PBM binding z-score no less than 0.08?
0.0
